As shown below, each of these compounds has a reported GI50 value.
test system: T47D; assay: NCI tumour cell line growth inhibition, 48 h
Activity calls are given as the source filed them. Cut-off read from the data, not from the text of the source: active = GI50 up to about 1.1 µM and inactive = higher.
assay_metric: GI50

O=S(=O)(O)C1CCC(O)C2NCCCC21 (stereo unspecified) ... > 100 µM (inactive)
O=C(Nn1c(-c2ccccc2)nc2ccccc2c1=O)c1cccc([N+](=O)[O-])c1 ... < 0.01 µM (active)
Cc1ccc(Cl)cc1/N=N/C(=O)NNc1cc(Cl)ccc1C ... 33.3 µM (inactive)
CCOC(=O)c1csc(NC(=O)CN(C)C)n1 ... > 100 µM (inactive)
CC1CC[C@@]2(OC1)OC1C[C@H]3[C@@H]4CC=C5CC(OC6OC(CO)C(OC7OC(CO)C(O)C(OC8OCC(O)C(O)C8O)C7OC7OC(CO)C(O)C(O)C7O)C(O)C6O)CCC5(C)[C@H]4CCC3(C)C1[C@@H]2C (stereo partly specified) ... 5.71 µM (inactive)
C#CCN(Cc1ccc2[nH]c(N)nc(=O)c2c1)c1ccc(C(=O)NC(CCC(=O)O)C(=O)O)cc1 (stereo unspecified) ... 9.35 µM (inactive)

###

test system: HCT-116; assay: NCI tumour cell line growth inhibition, 48 h
Active and inactive are the calls of the source. Cut-off read from the data, not from the text of the source: active = GI50 up to about 1.1 µM and inactive = higher. Where a SMILES comes first, the peptide text is derived from it. [ ]: non-standard residue; d: D form. The star is where a group is joined. ξ: configuration not given here. ξPhe(4-NO2) = NC(Cc1ccc([N+](=O)[O-])cc1)C(=O)O; Boc = CC(C)(C)OC(=O)*
Outcome codes: active, inactive

COC(=O)c1nsc(OC)c1Cl ... inactive
CC1CN=C(NCc2ccccc2)S1 (stereo not drawn) ... inactive
O=C(O)CC/C(=N\Nc1nsc2ccccc12)c1ccc(Cl)cc1 ... inactive
O=C(CC(=O)c1cccc2ccccc12)C(=O)Nc1nccs1 ... inactive
Cn1c(-c2ccc(C=O)o2)ccc1-c1ccc(C=O)o1 ... inactive
CCOC(=O)NC(=O)c1cn(CCN2CCN(C(=O)CCCCCCCCCCNc3ncnc4[nH]cnc34)CC2)c(=O)[nH]c1=O ... inactive
CCN(C(C)=N)c1ccccc1 ... inactive
O=C1C[C@@H](Sc2ccccc2)C2(OCCO2)C2ON3CCCC[C@H]3[C@H]12 (stereo partly drawn) ... inactive
COC(c1ccc(C(C)(C)C)cc1)(c1ccc(C(C)(C)C)cc1)c1cc(C(O)(c2cc(C(OC)(c3ccc(C(C)(C)C)cc3)c3ccc(C(C)(C)C)cc3)c(C)cc2C)c2cc(C(OC)(c3ccc(C(C)(C)C)cc3)c3ccc(C(C)(C)C)cc3)c(C)cc2C)c(C)cc1C ... inactive
CCCCCCCCCCCCCCCCCCN(C)CC(COC)OP(=O)([O-])OCC[N+](C)(C)C (stereo not drawn) ... inactive
COC(=O)/C=C1/SC(/C(=C(/[O-])OC)[n+]2ccc3ccccc3c2)=NC1=O ... inactive
CCOC(=O)c1c[nH]c2cc3c(cc2c1=O)CCS3 ... inactive
C[C@@H]1CC(=O)C2CCCC1C2=O (stereo partly drawn) ... inactive
O=S(=O)(O)C1CCC(O)C2NCCCC21 (stereo not drawn) ... inactive
Cc1nc(O)c(Cc2ccccc2O)c(-c2ccccc2)n1 ... inactive
C1CCOC2(CCC3(CC2)OCCCCO3)OC1 ... inactive
Cn1c(-c2ccccc2)cc2c3ccsc3c3ccsc3c21 ... inactive
COC1(OC)c2ccccc2C2(O)c3ccccc3C(=O)C12 (stereo not drawn) ... inactive
CC1(C)CCC[C@@]2(C)C1C(=O)[C@@H]1O[C@]1(C)[C@@H]2CO (stereo partly drawn) ... inactive
CC1(C)CC2=NO[Se]3=C2C(=NO3)C1 ... active
c1ccc2c(NCCCCCCNc3c4ccccc4nc4ccccc34)c3ccccc3nc2c1 ... active
CC1(C)C2CCC1(C)C(N/C(Sc1ccccc1)=C(/C(Cl)=C(Cl)Cl)[N+](=O)[O-])C2 (stereo not drawn) ... inactive
CC1=C(/C(C)=N/NC(=O)C(N)=O)Sc2ccccc2N1 ... inactive
O=C1N[C@@H](c2c[nH]c3ccc(Br)cc23)C(=O)N[C@H]1c1c[nH]c2ccc(Br)cc12 ... inactive
COc1ccc(C2Cc3cc(OC)c(OC)c(OC)c3C2)cc1 (stereo not drawn) ... inactive
COC(=O)C1=Nc2c(C)nn(-c3ccccc3)c2N=C(c2ccc([N+](=O)[O-])cc2)C1 ... inactive
NCc1c(C(N)=O)ncn1Cc1ccccc1 ... inactive
COc1ccc(C(=O)OC2C=COC(C)C2OC(=O)c2ccc(OC)cc2)cc1 (stereo not drawn) ... inactive
Cc1c(/N=N/c2ccc(Cl)cc2)c(-c2ccccc2)n(C2OC(CO)C(O)C(O)C2O)c(=S)c1C#N (stereo not drawn) ... inactive
CC(CO)CCNc1ncnc2c1ncn2CCC#N (stereo not drawn) ... inactive
CC(C)(C)OC(=O)NCC(=O)N1CCN(C(=O)CNC(=O)OC(C)(C)C)CC1 ... inactive
CC1OC(n2ccc3ccc([N+](=O)[O-])cc32)C(O)C(O)C1O (stereo not drawn) ... inactive
CC1(C)CC(=O)C2=C(C1)NC(=S)C(C#N)C2c1ccccc1 (stereo not drawn) ... inactive
CC(CN(C)C)C(O)(c1ccccc1)c1ccccc1 (stereo not drawn) ... inactive
CCOC(=O)c1ccc(NC(NC(=O)CC)(C(F)(F)F)C(F)(F)F)cc1 ... inactive
Cn1c2ccccc2c2[nH]cc3nc4ccccc4c-3c21 ... inactive
COC(=O)C1CC23CCCN4CCC5(c6ccccc6N(C=O)C15CC2)C43 (stereo not drawn) ... inactive
C=C(C)C(O)C(O)c1c(OC)ccc2ccc(=O)oc12 (stereo not drawn) ... inactive
N[C@@H]1c2c(Br)sc(Br)c2C(=O)[C@H]1Br ... inactive
CCNC(=O)CNC(=O)C(Cc1ccc([N+](=O)[O-])cc1)NC(=O)OC(C)(C)C (stereo not drawn) (Boc-[ξPhe(4-NO2)]-Gly-NHEt) ... inactive
CCOc1ccc(/N=C\c2cc(OC)c(OC)c(OC)c2)cc1 ... inactive
CN(C)CC1(C)CC/C(=C\c2ccc3c(c2)OCO3)C1=O (stereo not drawn) ... inactive
CC(C)(C)OC[C@H](O)CC#N ... inactive
